Assay: Measurement of log P values by HPLC on reversed phase columns (methods [a] pH 2.3, [b] pH 2.7, [c] pH 7.8)
Type: physicochemical
Conditions: HPLC on reversed phase columns, method [b], pH 2.7
Assignment: determine reported logP for the given molecules.

• O=C(N[C@@H]1CCC[C@H]1c1ccc(F)c(F)c1)c1cccnc1F (relative stereo) = 2.80^[b]
• O=C(NC1CCC1c1c(Cl)cccc1Cl)c1cccnc1 (stereo not drawn) = 2.17^[b]
• Cc1nc(Br)sc1C(=O)N[C@@H]1CCC[C@@H]1c1ccc(F)c(F)c1 (relative stereo) = 3.46^[b]
• Cn1cc(C(=O)NC2CC2c2ccc(Cl)cc2)c(C(F)(F)F)n1 (stereo not drawn) = 3.43^[b]

Provide the reported logP of each entry below, same order.
1. Cc1nn(C)c(Cl)c1C(=O)NC1CC1c1ccc(Cl)cc1 (stereo not drawn)
2. Cc1nn(C)cc1C(=O)NC1CC1c1ccc(Br)cc1 (stereo not drawn)
3. Cc1nn(C)c(Cl)c1C(=O)NC1CC1c1ccccc1 (stereo not drawn)
4. COc1nn(C)cc1C(=O)N[C@@H]1C[C@H]1c1ccccc1 (relative stereo)
5. CCc1nn(C)c(F)c1C(=O)N[C@@H]1CCC[C@@H]1c1ccc(F)c(F)c1 (relative stereo)

OUT:
1. 2.22^[b]
2. 3.20^[b]
3. 2.12^[b]
4. 2.03^[b]
5. 2.92^[b]
